The reported measurements were obtained from a melting point compilation (Tetko et al.; mined from patent text by program, amines drawn as free bases though some values may be those of a salt).

endpoint-name: melting point

Input line: Fill blank: measured melting point of the molecule CCCCc1ccc(CN(CCC(C)(C)C)C(=O)Nc2c(C)cc(Cl)cc2C)cc1 is ____.
Output line: 138 to 139 °C

Input line: Item CCc1c(-c2ccc(O)cc2)c2c(COCCCCCN3CCCCC3)cc3c(O)ccc1n32 has what recorded melting point?
Output line: 120 to 121 °C

Input line: Param item = O=S1(=O)N=C(n2ccnc2)Nc2ccc(C(F)(F)F)cc21 ; retrieve measured melting point.
Output line: 211 to 214 °C

Input line: Look up melting point for this molecule: O=C(N=C1SCCN1Cc1ccc(Cl)nc1)C(F)(F)F
Output line: 96 °C

Input line: Bench note: what melting point did N=C(N)Nc1nc(CSCCC(=O)NS(N)(=O)=O)cs1 show?
Output line: 160 °C

Input line: Recorded melting point for CC(C)NC=C1C(=O)COc2ccccc2C1=O , please?
Output line: 89 to 91 °C

Input line: Tell me the measured melting point of C/C(=C\c1ccc(C(=O)O)cc1)c1ccc2c(c1)CC(C)(C)CC(C)(C)C2 , please.
Output line: 232 to 235 °C

Input line: Need melting point, item Cn1cc(C(=O)O)c2nc3ncccc3cc2c1=O
Output line: > 300 °C

Input line: Name the recorded melting point for CS(=O)(=O)c1ccc(-n2nc(C(F)F)cc2-c2nc3ccc(F)cc3s2)cc1 .
Output line: 204 to 206 °C

Input line: Given the entry CC(=O)SCCC(=O)N1c2cc(C)ccc2CCC1C(=O)O (centres undefined) , report its measured melting point.
Output line: 119 to 122 °C

Input line: What does the record list as melting point for COc1cn(-c2ccc(-n3cccn3)cc2F)nc(-c2ccnn2-c2ccccc2)c1=O ?
Output line: 214 to 216 °C

Input line: melting point lookup needed for Nc1nc2ccccc2c2c1ncn2CCCCNC(=O)c1ccc(Oc2ccccc2)cc1 , thanks.
Output line: 90.5 to 91.5 °C

Input line: Would you mind telling me what melting point value was observed for N#Cc1cccn1-c1ccc(CN2C(=O)c3ccccc3C2=O)cc1 ?
Output line: 167 to 168 °C

Input line: Which melting point is reported for this molecule? CC(C)(Cl)C(CCNC(=O)C(F)(F)F)N=O (centres undefined)
Output line: 91 to 93 °C

Input line: Which melting point is reported for this molecule? O=C(O)CCCCCCCCC1=CC(O)CC1=O (centres undefined)
Output line: 58 to 66 °C

Input line: Please look up its melting point: O=C(O)Cn1c(=O)c2ccccc2n(CCCN2CCC(OC(c3ccccc3)c3ccccc3)CC2)c1=O
Output line: 170 to 172 °C

Input line: Suppose we examine the molecule CCOC(=O)c1cc(/C=C/c2ccc3ccccc3n2)cn1C ; what melting point value has been reported?
Output line: 140 to 142 °C

Input line: What melting point value was documented for this molecule, CNC(=O)NC(=O)C(CC1CCCC1OC1CCCCO1)c1ccc(Cl)c(Cl)c1 (centres undefined) ?
Output line: 68 to 70 °C

Input line: Look up melting point: O=C(NCc1c[nH]c(-c2cc3nc(C(=O)O)c(=O)[nH]c3cc2[N+](=O)[O-])n1)Nc1ccccc1F
Output line: 300 °C

Input line: # query: melting point of entry Cc1cc(=O)oc2c(C)c(O)c([N+](=O)[O-])cc12
Output line: 230 to 232 °C

Input line: Using the record for Nc1nc(N)c(-c2ccc(Cl)cc2Cl)c(Cl)n1 , report its melting point.
Output line: 219 °C

Input line: Which melting point reading was recorded for the molecule NC(=O)CCn1nccc1-c1ccc(Oc2ccc(F)cc2)cc1 ?
Output line: 118 to 120 °C

Input line: Data request, read-out melting point, for CCOC(=O)Cn1c2c([nH]c(=O)c1=O)CCC1=C2C=C(n2ccc(C=O)c2)CC1
Output line: > 250 °C

Input line: Which value of melting point has been reported for C=CCNc1c(C(=O)OCC)cnc2cn(C)nc12 in the records?
Output line: 140 to 143 °C

Input line: Entry c1ccc(N2CCN(c3nsc4ccccc34)CC2)cc1 has what melting point?
Output line: 260 to 262 °C

Input line: Fill in: melting point of Cc1cnc2c(C(=O)NC=NO)c(Cl)ccc2c1 is ___
Output line: 235 to 238 °C

Input line: // query melting point value for entry Cn1ccc2cc(N3Cc4ccc(OCC(F)(F)F)cc4C3=O)ccc21
Output line: 182 to 188 °C

Input line: Give its melting point value. Item: On1c(-c2ccccc2)c[nH]c1=S
Output line: 191 °C

Input line: Please report the recorded melting point for CCCCCCOc1ccc(-c2nc(-c3ccc(OCCCCCC)cc3O)nc(-c3ccc(OCCCCCC)cc3O)n2)c(O)c1 .
Output line: 125 to 127 °C

Input line: For the molecule shown here, CCOC(=O)c1c(C2CCNCC2)[nH]c(-c2cccc(C(F)(F)F)c2)c1-c1ccncc1 , give the reported melting point.
Output line: 233 to 235 °C

Input line: Which melting point is reported for this molecule? CC(=O)c1ccc(-c2ccc(F)cc2F)c(N)c1
Output line: 93 to 95 °C

Input line: Field request: melting point | item: COC(=O)c1nsc(N)n1
Output line: 202 to 205 °C

Input line: Sample CCc1c(C(=O)c2cc(C)cc(C)c2)n(CC2=CC(CO)C(CO)C2)c(=O)[nH]c1=O (centres undefined) — what was its melting point?
Output line: 79 to 80 °C

Input line: Can you share its melting point? I mean this molecule: CCCCCC(CC(=O)Nc1cc(C(=O)Nc2ccncc2)ccc1C(C)(C)C)c1c(OC)cccc1OC (centres undefined)
Output line: 169 to 172 °C
